Let's look at some compounds and their measured Bliss excess.
test system: NCI-N87 (Gastric Carcinoma); assay: Bliss excess, mean over the matrix (fraction); higher = more synergy;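 also: after 72 h of two-drug dosing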
Assay metric: Bliss excess

* CN(C)CCCOc1ccc(-c2ccc3ncc4c(c3c2)n(C2CCOCC2)c(=O)n4C)cn1 [AZD0156] + CCN(CCO)CCCOc1ccc2c(Nc3cc(CC(=O)Nc4cccc(F)c4)[nH]n3)ncnc2c1 [AZD2811] (first compound max 1 µM, 7x7, partner max 1 µM) | 0.0046
* COc1nnc2ccc(N3CCC(c4ccc(OCCN5CCN(C)C(=O)[C@H]5C)cc4)CC3)nn12 [AZD5153] + CC1(C)CCC(CN2CCN(c3ccc(C(=O)NS(=O)(=O)c4ccc(NCC5CCOCC5)c([N+](=O)[O-])c4)c(Oc4cnc5[nH]ccc5c4)c3)CC2)=C(c2ccc(Cl)cc2)C1 [Venetoclax] (first compound max 1 µM, 7x7, partner max 1 µM) | -0.0978
* Cc1c2c(nn1C)CSCc1cc(n(C)n1)CSc1cc(c3ccccc3c1)OCCCc1c(C(=O)O)n(C)c3c-2c(Cl)ccc13 [AZD5991] + CS(=O)(=O)CCNCc1ccc(-c2ccc3ncnc(Nc4ccc(OCc5cccc(F)c5)c(Cl)c4)c3c2)o1 [Lapatinib] (first compound max 1 µM, 7x7, partner max 10 µM) | 0.0077
* Cc1c2c(nn1C)CSCc1cc(n(C)n1)CSc1cc(c3ccccc3c1)OCCCc1c(C(=O)O)n(C)c3c-2c(Cl)ccc13 [AZD5991] + C[C@@H](Nc1cc(F)cc(F)c1)c1cc(C(=O)N(C)C)cc2c(=O)cc(N3CCOCC3)oc12 [AZD8186] (first compound max 1 µM, 7x7, partner max 3 µM) | -0.0181
* CC1(C)CCC(CN2CCN(c3ccc(C(=O)NS(=O)(=O)c4ccc(NCC5CCOCC5)c([N+](=O)[O-])c4)c(Oc4cnc5[nH]ccc5c4)c3)CC2)=C(c2ccc(Cl)cc2)C1 [Venetoclax] + CN(C)CCCOc1ccc(-c2ccc3ncc4c(c3c2)n(C2CCOCC2)c(=O)n4C)cn1 [AZD0156] (first compound max 1 µM, 7x7, partner max 1 µM) | -0.0763
* CN(CCO)CC[C@H](CSc1ccccc1)Nc1ccc(S(=O)(=O)NC(=O)c2ccc(N3CCC([C@@H](O)c4ccccc4-c4ccc(Cl)cc4)CC3)cc2)cc1S(=O)(=O)C(F)(F)F [AZD4320] + Cc1cc2ncnn2cc1Nc1ncc2c(n1)n(C1CCOCC1)c(=O)n2C [AZD7648] (first compound max 1 µM, 7x7, partner max 10 µM) | -0.0695
* CN(C)CCCOc1ccc(-c2ccc3ncc4c(c3c2)n(C2CCOCC2)c(=O)n4C)cn1 [AZD0156] + C[C@@H]1COCCN1C2=NC(=NC(=C2)C3(CC3)[S@](=N)(=O)C)C4=C5C=CNC5=NC=C4 [AZD6738] (first compound max 1 µM, 7x7, partner max 10 µM) | -0.0286
* CC1(C)CCC(CN2CCN(c3ccc(C(=O)NS(=O)(=O)c4ccc(NCC5CCOCC5)c([N+](=O)[O-])c4)c(Oc4cnc5[nH]ccc5c4)c3)CC2)=C(c2ccc(Cl)cc2)C1 [Venetoclax] + Cn1cnc2c(F)c(Nc3ccc(Br)cc3Cl)c(C(=O)NOCCO)cc21 [Selumetinib] (first compound max 1 µM, 7x7, partner max 3 µM) | -0.065
* Cc1cc2ncnn2cc1Nc1ncc2c(n1)n(C1CCOCC1)c(=O)n2C [AZD7648] + COc1cc([C@@H]2c3cc4c(cc3[C@@H](O[C@@H]3O[C@@H]5CO[C@@H](C)O[C@H]5[C@H](O)[C@H]3O)[C@H]3COC(=O)[C@H]23)OCO4)cc(OC)c1O [Etoposide] (first compound max 10 µM, 7x7, partner max 10 µM) | -0.0062
* Cn1cnc2c(F)c(Nc3ccc(Br)cc3Cl)c(C(=O)NOCCO)cc21 [Selumetinib] + C=CCn1c(=O)c2cnc(Nc3ccc(N4CCN(C)CC4)cc3)nc2n1-c1cccc(C(C)(C)O)n1 [AZD1775] (first compound max 10 µM, partner max 1 µM) | 0.023
* CCN(CCO)CCCOc1ccc2c(Nc3cc(CC(=O)Nc4cccc(F)c4)[nH]n3)ncnc2c1 [AZD2811] + C=CCn1c(=O)c2cnc(Nc3ccc(N4CCN(C)CC4)cc3)nc2n1-c1cccc(C(C)(C)O)n1 [AZD1775] (first compound max 1 µM, partner max 1 µM) | -0.0657
* COc1cccc(OCCCN)c1-c1cc(Nc2cnc(C#N)cn2)n[nH]1 [Prexasertib] + Cc1cc2ncnn2cc1Nc1ncc2c(n1)n(C1CCOCC1)c(=O)n2C [AZD7648] (first compound max 1 µM, 7x7, partner max 10 µM) | -0.0119
* CC(=O)Nc1cccc(-n2c(=O)n(C3CC3)c(=O)c3c(Nc4ccc(I)cc4F)n(C)c(=O)c(C)c32)c1 [Trametinib] + Cc1nc(-c2cn3c(n2)-c2ccc(-c4cnn(C(C)(C)C(N)=O)c4)cc2OCC3)n(C(C)C)n1 [Taselisib] (first compound max 1 µM, 7x7, partner max 10 µM) | 0.067
